- TARGET OF ASSAY: human TMEM16A (TMEM16Aabc variant) (Homo sapiens, UniProt Q5XXA6, DEL476-501, form not given)
- Sequence (Q5XXA6 with tags, fused parts or gaps DEL476-501): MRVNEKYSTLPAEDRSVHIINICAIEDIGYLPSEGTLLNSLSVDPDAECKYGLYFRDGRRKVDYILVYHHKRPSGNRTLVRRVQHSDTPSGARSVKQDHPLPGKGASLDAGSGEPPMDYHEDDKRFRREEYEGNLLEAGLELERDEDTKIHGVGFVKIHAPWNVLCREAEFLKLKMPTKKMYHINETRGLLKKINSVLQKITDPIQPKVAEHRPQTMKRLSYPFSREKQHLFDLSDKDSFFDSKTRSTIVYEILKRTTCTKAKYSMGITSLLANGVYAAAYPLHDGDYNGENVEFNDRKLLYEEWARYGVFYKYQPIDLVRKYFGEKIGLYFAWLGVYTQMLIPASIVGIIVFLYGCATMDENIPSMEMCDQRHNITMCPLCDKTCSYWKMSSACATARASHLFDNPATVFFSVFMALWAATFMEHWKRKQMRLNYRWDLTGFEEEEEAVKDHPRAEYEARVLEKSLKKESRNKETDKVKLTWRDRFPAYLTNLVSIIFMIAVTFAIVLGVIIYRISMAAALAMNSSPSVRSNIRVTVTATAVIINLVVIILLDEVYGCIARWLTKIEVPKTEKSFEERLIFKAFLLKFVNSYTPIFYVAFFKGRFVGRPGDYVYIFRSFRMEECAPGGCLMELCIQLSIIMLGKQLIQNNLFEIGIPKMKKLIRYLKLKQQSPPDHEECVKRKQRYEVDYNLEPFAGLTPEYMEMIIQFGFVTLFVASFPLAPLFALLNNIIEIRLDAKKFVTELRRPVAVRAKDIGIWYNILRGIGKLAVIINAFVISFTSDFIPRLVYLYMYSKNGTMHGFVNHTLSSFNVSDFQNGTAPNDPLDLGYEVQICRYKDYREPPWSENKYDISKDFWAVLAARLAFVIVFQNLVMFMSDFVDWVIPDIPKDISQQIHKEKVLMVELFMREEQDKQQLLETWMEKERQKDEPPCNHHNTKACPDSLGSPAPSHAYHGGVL
- ASSAY TEXT: Automated whole-cell patch clamp (Qpatch) TMEM16A potentiator assay in FRT cells stably expressing human TMEM16A
- CONDITION SUMMARY: calculated EC50, Qpatch TMEM16A current at +70 mV
Could you please mark Criterion met for values of EC50 below 400 nM and Criterion not met for values at or above it?

Here are 2 compounds together with their reported answers.
Criterion: EC50 strictly below 400 nM. Is it met by CC(C)(C)NC(=O)c1cc(NC(=O)Cc2cccc(F)c2)ccn1 [Example 5.9] ? Criterion not met

Criterion: EC50 strictly below 400 nM. Is it met by COc1cc(C(F)(F)F)ccc1CC(=O)Nc1cccc(C(=O)NC(C)(C)C)c1 [Example 4.9] ? Criterion not met

Continuing:
Criterion: EC50 strictly below 400 nM. Is it met by CC(C)(C)NC(=O)c1cccc(NC(=O)Cc2c[nH]c3ccc(F)cc23)c1 [Example 4.2] ? Criterion not met

Criterion: EC50 strictly below 400 nM. Is it met by CC(C)(C)NC(=O)c1cc(NC(=O)Cc2cccc(F)c2Cl)ccn1 [Example 40] ? Criterion not met

Criterion: EC50 strictly below 400 nM. Is it met by CC(C)(C)NC(=O)c1cc(NC(=O)Cc2cc(C#N)ccc2O)ccn1 [Example 6] ? Criterion not met

Criterion: EC50 strictly below 400 nM. Is it met by CC(C)(C)NC(=O)c1cccc(NC(=O)Cc2cc(Br)ccc2O)c1 [Example 2.10] ? Criterion not met

Criterion: EC50 strictly below 400 nM. Is it met by C#CC1(NC(=O)c2cc(NC(=O)Cc3cc(Cl)ccc3O)ccn2)CCOCC1 [Example 31.4] ? Criterion met

Criterion: EC50 strictly below 400 nM. Is it met by O=C(Cc1cc(Cl)ccc1O)Nc1ccnc(C(=O)NC2(CO)CCC2)c1 [Example 35.25] ? Criterion met

Criterion: EC50 strictly below 400 nM. Is it met by N#CC1(NC(=O)c2cc(NC(=O)Cc3cc(Cl)ccc3O)ccn2)CCC1 [Example 7.16] ? Criterion met

* * *

- TARGET OF ASSAY: human TMEM16A (TMEM16Aabc variant) (Homo sapiens, UniProt Q5XXA6, DEL476-501, form not given)
- ASSAY TEXT: Automated whole-cell patch clamp (Qpatch) TMEM16A potentiator assay in FRT cells stably expressing human TMEM16A
- CONDITION SUMMARY: calculated EC50, Qpatch TMEM16A current at +70 mV
Could you please mark Y for values of EC50 below 500 nM and N for values at or above it?

Criterion: EC50 strictly below 500 nM. Is it met by O=C(Cc1cc(Cl)ccc1O)Nc1ccnc(C(=O)NCc2ccncc2)c1 ? N

Criterion: EC50 strictly below 500 nM. Is it met by COc1ccc(F)c(F)c1CC(=O)Nc1cccc(C(=O)NC(C)(C)C)c1 ? N

Criterion: EC50 strictly below 500 nM. Is it met by CC(C)(C)NC(=O)c1cc(NC(=O)Cc2ccc(Cl)c(Cl)c2)ccn1 ? Y

Criterion: EC50 strictly below 500 nM. Is it met by CC(C)(C)NC(=O)c1cc(NC(=O)Cc2cccs2)ccn1 ? N

Criterion: EC50 strictly below 500 nM. Is it met by C#CC(C)(C)NC(=O)c1cc(NC(=O)CC2CCCC2)ccn1 ? Y

Criterion: EC50 strictly below 500 nM. Is it met by COc1cccc(CC(=O)Nc2cccc(C(=O)NC(C)(C)C)c2)c1O ? N

Criterion: EC50 strictly below 500 nM. Is it met by CC1(NC(=O)c2cc(NC(=O)Cc3cc(Cl)ccc3O)ccn2)CC1 ? Y

Criterion: EC50 strictly below 500 nM. Is it met by Cc1cc(NC(=O)Cc2cc(Cl)ccc2O)cc(C(=O)NC(C)(C)C)c1 ? N

Continuing:
Criterion: EC50 strictly below 500 nM. Is it met by CC(C)(C)NC(=O)c1cccc(NC(=O)Cc2cc(C(F)(F)F)ccc2O)c1 ? Y

Criterion: EC50 strictly below 500 nM. Is it met by O=C(Cc1cc(Cl)ccc1O)Nc1ccnc(C(=O)NC2CCOCC2)c1 ? Y

Criterion: EC50 strictly below 500 nM. Is it met by O=C(Cc1cc(Cl)ccc1O)Nc1ccnc(C(=O)N[C@H]2CC[C@@H](O)CC2)c1 ? N

Criterion: EC50 strictly below 500 nM. Is it met by CC(C)(C)NC(=O)c1cc(NC(=O)[C@@H]2CCc3ccccc32)ccn1 (single isomer, unassigned) [Example 21a] ? N

Criterion: EC50 strictly below 500 nM. Is it met by COc1ccc(CC(=O)Nc2cccc(C(=O)NC(C)(C)C)c2)c(O)c1 ? N

Criterion: EC50 strictly below 500 nM. Is it met by CC(C)(C)NC(=O)c1cc(NC(=O)Cc2ccc(C(C)(C)C)cc2N)ccn1 ? Y

Criterion: EC50 strictly below 500 nM. Is it met by CC1(NC(=O)c2cc(NC(=O)Cc3cc(Cl)ccc3O)ccn2)CCCC1 ? Y

Criterion: EC50 strictly below 500 nM. Is it met by O=C(Cc1cc(Cl)ccc1O)Nc1ccnc(C(=O)N[C@@]2(CO)CCOC2)c1 (single isomer, unassigned) [Example 35b] ? Y

Criterion: EC50 strictly below 500 nM. Is it met by CC1(NC(=O)c2cccc(NC(=O)Cc3cc(Cl)ccc3O)c2)CCCCC1 ? Y

Criterion: EC50 strictly below 500 nM. Is it met by CC(C)(C)NC(=O)c1cc(NC(=O)C2CCCCc3ccccc32)ccn1 (stereo not shown) ? N

Criterion: EC50 strictly below 500 nM. Is it met by O=C(Cc1cc(Cl)ccc1O)Nc1ccnc(C(=O)N[C@H]2CCCC[C@@H]2O)c1 [Example 31.3] ? Y

Criterion: EC50 strictly below 500 nM. Is it met by COc1ccc(CNC(=O)c2cc(NC(=O)Cc3cc(Cl)ccc3O)ccn2)nc1 ? Y

* * *

- TARGET OF ASSAY: human TMEM16A (TMEM16Aabc variant) (Homo sapiens, UniProt Q5XXA6, DEL476-501, form not given)
- ASSAY TEXT: Automated whole-cell patch clamp (Qpatch) TMEM16A potentiator assay in FRT cells stably expressing human TMEM16A
- CONDITION SUMMARY: calculated EC50, Qpatch TMEM16A current at +70 mV
ENDPOINT NAME: EC50 (µM)
Write down the numeric answer in µM and omit the unit.

Some solved cases for reference:
Quick one: give measured EC50 for Cc1[nH]c2c(F)cccc2c1CC(=O)Nc1cccc(C(=O)NC(C)(C)C)c1 4.19

Quick one: give measured EC50 for COCC(C)(C)NC(=O)c1cccc(NC(=O)Cc2ccccc2O)c1 4.2

Please turn your attention to the following entry.
Quick one: give measured EC50 for N#CC1(NC(=O)c2cc(NC(=O)Cc3ccc4ncccc4c3)ccn2)CCOCC1 1.4

* * *

Reported % Potentiation @ 3.33 μM Avg values follow for various molecules
- TARGET OF ASSAY: human TMEM16A (TMEM16Aabc variant) (Homo sapiens, UniProt Q5XXA6, DEL476-501, form not given)
- ASSAY TEXT: Automated whole-cell patch clamp (Qpatch) TMEM16A potentiator assay in FRT cells stably expressing human TMEM16A
- Assay type: cell-based
- CONDITION SUMMARY: 3.33 μM solution of test compound; percentage increase of baseline TMEM16A current
Write down the numeric answer in % and omit the unit.

Quick one: give measured % Potentiation @ 3.33 μM Avg for CC1(NC(=O)c2cc(NC(=O)Cc3cc(F)ccc3O)ccn2)CCC1 [Example 48] 195

Quick one: give measured % Potentiation @ 3.33 μM Avg for CC(C)(C#N)NC(=O)c1cc(NC(=O)CC2CC3CCC2C3)ccn1 (stereo not shown) [Example 83.6] 248

Quick one: give measured % Potentiation @ 3.33 μM Avg for CC(C(=O)Nc1cccc(C(=O)NC(C)(C)C)c1)c1ccccc1O (stereo not shown) [Example 2.7] 51

Quick one: give measured % Potentiation @ 3.33 μM Avg for CC1(O)CCC(NC(=O)c2cc(NC(=O)Cc3cc(Cl)ccc3O)ccn2)CC1 (stereo not shown) [Example 35.1] 51

Quick one: give measured % Potentiation @ 3.33 μM Avg for CC(C)(C)NC(=O)c1cc(NC(=O)Cc2c[nH]c3ccccc23)ccn1 [Example 5.6] 101

Quick one: give measured % Potentiation @ 3.33 μM Avg for C#CC(C)(C)NC(=O)c1cc(NC(=O)Cc2ccccc2F)ccn1 [Example 60.2] 169

Please turn your attention to the following entry.
Quick one: give measured % Potentiation @ 3.33 μM Avg for CC1(NC(=O)c2cc(NC(=O)Cc3ccccc3Cl)ccn2)CC1 [Example 30.8] 121

* * *

- TARGET OF ASSAY: human TMEM16A (TMEM16Aabc variant) (Homo sapiens, UniProt Q5XXA6, DEL476-501, form not given)
- ASSAY TEXT: Automated whole-cell patch clamp (Qpatch) TMEM16A potentiator assay in FRT cells stably expressing human TMEM16A
- Format: cell-based
- CONDITION SUMMARY: 3.33 μM solution of test compound; percentage increase of baseline TMEM16A current
Could you please mark fulfilled for values of % Potentiation @ 3.33 μM Avg below 200% and not fulfilled for values at or above it?

Here are 4 molecules together with their reported answers.
Criterion: % Potentiation @ 3.33 μM Avg strictly below 200%. Is it met by CC(C)(NC(=O)c1cc(NC(=O)Cc2cc(Cl)ccc2O)ccn1)c1ccccn1 ? not fulfilled

Criterion: % Potentiation @ 3.33 μM Avg strictly below 200%. Is it met by CC(C)(C)NC(=O)c1cc(NC(=O)Cc2cc(C(F)(F)F)ccc2O)ccn1 ? fulfilled

Criterion: % Potentiation @ 3.33 μM Avg strictly below 200%. Is it met by CC(C)(C)NC(=O)c1cc(NC(=O)Cc2ccc(C(C)(C)C)c(O)c2)ccn1 ? not fulfilled

Criterion: % Potentiation @ 3.33 μM Avg strictly below 200%. Is it met by CC(C)(C)NC(=O)c1cc(NC(=O)NCc2ccccc2Cl)ccn1 ? fulfilled

Continuing:
Criterion: % Potentiation @ 3.33 μM Avg strictly below 200%. Is it met by N#CC1(NC(=O)c2cc(NC(=O)Cc3ccccc3Cl)ccn2)CC1 ? fulfilled

Criterion: % Potentiation @ 3.33 μM Avg strictly below 200%. Is it met by CC12CC(NC(=O)c3cc(NC(=O)Cc4ccccc4Cl)ccn3)(C1)C2 ? fulfilled

Criterion: % Potentiation @ 3.33 μM Avg strictly below 200%. Is it met by Cc1cccc(CC(=O)Nc2ccnc(C(=O)NC(C)(C)C)c2)c1 ? fulfilled

Criterion: % Potentiation @ 3.33 μM Avg strictly below 200%. Is it met by CC(C)(C#N)NC(=O)c1cc(NC(=O)Cc2cc(Cl)ccc2O)ccn1 ? not fulfilled

Criterion: % Potentiation @ 3.33 μM Avg strictly below 200%. Is it met by O=C(Cc1cc(F)ccc1F)Nc1ccnc(C(=O)NC23CCC(F)(C2)C3)c1 ? fulfilled

Criterion: % Potentiation @ 3.33 μM Avg strictly below 200%. Is it met by CC(C)(C)NC(=O)c1cccc(NC(=O)Cc2cc(F)c(F)cc2O)c1 ? fulfilled

Criterion: % Potentiation @ 3.33 μM Avg strictly below 200%. Is it met by CC(C)(C)NC(=O)c1cc(NC(=O)Cc2ccc(C(C)(C)C)cc2N)ccn1 ? not fulfilled

Criterion: % Potentiation @ 3.33 μM Avg strictly below 200%. Is it met by O=C(Cc1cc(Cl)ccc1O)Nc1ccnc(C(=O)NC23CCC(F)(C2)C3)c1 ? not fulfilled

Criterion: % Potentiation @ 3.33 μM Avg strictly below 200%. Is it met by CC(C#N)(CO)NC(=O)c1cc(NC(=O)Cc2ccccc2F)ccn1 (stereo not shown) ? fulfilled

Criterion: % Potentiation @ 3.33 μM Avg strictly below 200%. Is it met by C#CC(C)(C)NC(=O)c1cccc(NC(=O)Cc2cc(Cl)ccc2O)c1 ? not fulfilled

Criterion: % Potentiation @ 3.33 μM Avg strictly below 200%. Is it met by CC(C)(C)NC(=O)c1cc(NC(=O)Cc2cc(CN3CCOCC3)ccc2O)ccn1 ? fulfilled

Criterion: % Potentiation @ 3.33 μM Avg strictly below 200%. Is it met by CC(C)(C)NC(=O)c1cc(NC(=O)Cc2ccccc2OC(F)F)ccn1 ? fulfilled

Criterion: % Potentiation @ 3.33 μM Avg strictly below 200%. Is it met by CC(C)(C)NC(=O)c1cc(NC(=O)Cc2cc(Cl)cc(Cl)c2)ccn1 ? fulfilled

Criterion: % Potentiation @ 3.33 μM Avg strictly below 200%. Is it met by CC(C)(C)c1ccc(CC(=O)Nc2ccnc(C(=O)NC3(C#N)CCOCC3)c2)cc1O ? fulfilled

Criterion: % Potentiation @ 3.33 μM Avg strictly below 200%. Is it met by CC(C)(C#N)NC(=O)c1cc(NC(=O)c2ccsc2)ccn1 ? fulfilled

Criterion: % Potentiation @ 3.33 μM Avg strictly below 200%. Is it met by CC(C)(C)NC(=O)c1cc(NC(=O)NCc2cccc(Cl)c2)ccn1 ? fulfilled

Criterion: % Potentiation @ 3.33 μM Avg strictly below 200%. Is it met by CC(C)(C)NC(=O)c1cc(NC(=O)C2COc3ccccc32)ccn1 (stereo not shown) ? fulfilled
